Here the recorded kon is given for each entry.
# tested_on: T1, cynomolgus monkey EpoR (cynoEpoR) (cynomolgus monkey, UniProt A0A2K5WKK4 25-250)
# T1 construct: Soluble protein (coated in ELISA, analyte in SPR)
# T1 sequence: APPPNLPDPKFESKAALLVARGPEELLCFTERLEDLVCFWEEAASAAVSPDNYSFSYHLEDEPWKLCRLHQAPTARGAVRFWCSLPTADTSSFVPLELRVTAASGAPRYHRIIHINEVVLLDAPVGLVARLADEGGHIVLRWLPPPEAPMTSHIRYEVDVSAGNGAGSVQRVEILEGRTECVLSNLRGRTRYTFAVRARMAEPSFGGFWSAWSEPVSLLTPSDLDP
# test: SPR, Biacore T100; scFv-Fc captured on anti-human IgG Fc CM5 chip, EpoR as analyte; 1:1 fit;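 further: measured at 25 °C in HBS-EP buffer with 0.1 mg/ml BSA, flowed at 50 µl/min, 1 min association then dissociation (10 min human, 5 min cyno EpoR)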
Express it in M⁻¹ s⁻¹; write the number only.

Worked examples, 2 binders total:
Quickly give me recorded kon for Mxb 16 (clone 16 scFv-Fc protein) (Fc fusion, Tested as scFv-Fc (maxibody) with an Fc derived from human IgG1) VH: QVQLQESGPGLVKPSETLSLTCTVSGGYINNYYWSWIRQPPGKGLEWIGYIHYSGSTYYNPSLKSRVTISEDTSKNQFSLKLSSATAADTAVYYCARVGYYYDSSGYNLAWYFDLWGRGTLVTVSA VL: SSELTQDPAVSVALGQTVRITCQGDNLRSYSATWYQQKPGQAPVLVLFGENNRPSGIPDRFSGSKSGDTAVLTITGTQTQDEADYYCTSRVNSGNHLGVFGPGTQLTVL
65000

Quickly give me recorded kon for Mxb 330 (clone 330 scFv-Fc protein) (Fc fusion, Tested as scFv-Fc (maxibody) with an Fc derived from human IgG1) VH: EVQLVESGGGLVQPGGSLRLSCAVSGFTFSKYWMTWVRQAPGKGLEWVANIKPDGSEKYYVESVKGRFTISRDNAKNSVYLQMNSVRAEDTAVYYCARVSRGGSFSDWGQGTLVTVSS VL: QSALTQPPSASGSPGQSVTISCTGTSSDVGAYNYVSWYQQHPGKAPKLMIYEVARRPSGVPDRFSGSKSGNTASLTVSGLQAEDEADYYCSSYAGSNNFAVFGRGTKLTVL
108000

Now take the following binder into account.
Quickly give me recorded kon for Mxb 319 (clone 319 scFv-Fc protein) (Fc fusion, Tested as scFv-Fc (maxibody) with an Fc derived from human IgG1) VH: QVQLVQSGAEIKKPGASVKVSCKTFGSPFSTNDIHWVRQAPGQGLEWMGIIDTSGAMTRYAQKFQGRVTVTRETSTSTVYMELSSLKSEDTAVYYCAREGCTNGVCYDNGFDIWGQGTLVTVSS VL: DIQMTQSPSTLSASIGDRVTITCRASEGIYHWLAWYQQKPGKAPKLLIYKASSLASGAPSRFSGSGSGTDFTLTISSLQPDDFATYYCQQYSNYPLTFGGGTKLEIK
213000

Source of measurements: patent US20080102065A1
